Experiment: Solubility by saturation of the solvent, filtration and determination of concentration in the supernatant
Assay type: physicochemical
Settings: organic solvent or mixture, thermodynamic from solid; in 29.5% v/v acetic anhydride-acetic acid at 15° C.
Property Name: solubility (mg/mL)
Your answer is read as mg/mL, so omit the unit and give the number.

Output solubility of "CC(=O)C1C(=O)N(C2CCCCC2)C(=O)N(C2CCCCC2)C1=O"
43.7

* * *

Assay: Solubility by saturation of the solvent, filtration and determination of concentration in the supernatant
Assay type: physicochemical
Details: organic solvent or mixture, thermodynamic from solid; in acetic acid at 20° C.
Property Name: solubility (mg/mL)
The answer is to be given in mg/mL; state only the numeric part.

Query solubility for "CC(=O)C1C(=O)N(C2CCCCC2)C(=O)N(C2CCCCC2)C1=O"
62.3
